- Experimental Protocol: Stability in USP simulated gastric juice
- Assay type: in vitro ADME
- Condition Details: USP SGF pH 1.1, pepsin […], prodrug 20 μg/mL
- From the text: To minimize the direct inhibitory action of this drug on gastric emptying/gut motility—and resultant nausea—the prodrug should not undergo premature chemical or enzymic cleavage back to the parent drug while within the gut lumen.
Below, each of the compounds is paired with its reported Simulated gastric juice (1 h, 37° C.) % active drug generated value.
Numeric answer only, unit % assumed.

- Compound: "CCOC(=O)c1ccc(NC(=O)CCCC(=O)OC2=C(CC3CCN(Cc4ccccc4)CC3)Cc3cc(OC)c(OC)cc32)cc1 [Donepezil glutaryl PABA ethyl ester]"
  Reading Unit: "%"
  Measured Value: 2

Here is the next item to consider.
Simulated gastric juice (1 h, 37° C.) % active drug generated for CCOC(=O)[C@@H](NC(=O)CCCC(=O)OC1=C(CC2CCN(Cc3ccccc3)CC2)Cc2cc(OC)c(OC)cc21)C(C)C [Donepezil glutaryl valine ethyl ester] is 2
